- System: GfCNMT
- procedure details: N-alkylation substrate screen using GfCNMT (LC-MS)
- Type: biochemical, Glaucium flavum
- Set-up: key: −=no detectable quantities of product N-alkylated compound; Trace, +, ++, +++=increasing relative levels of product N-alkylated compound; Trace, +, ++, +++=increasing relative levels of product N-alkylated compound; Trace, +, ++, +++=increasing relative levels of product N-alkylated compound; Trace, +, ++, +++=increasing relative levels of product N-alkylated compound
- test parameters: 25 μg protein, 1 mM substrate, 1 mM SAM, 60 mM HEPES pH 8, 16 hours at 37° C.; relative level of N-alkylated product by LC-MS
measured quantity: N-alkylation of substrate alkaloid compounds, Enzyme GfCNMT

1) NC(=O)c1cccnc1 [Nicotinamide, nicotinamide] | −
2) COc1cc2c(cc1O)C(Cc1ccc(O)cc1)NCC2 (centres unmarked) | +++
3) COc1ccc2c(c1)[nH]c1c(C)nccc12 | ++
4) NCCc1ccc(O)cc1 | +
5) CC(N)C(O)c1ccccc1 (centres unmarked) | −

Lab note: each compound below needs its N-alkylation of substrate alkaloid compounds, Enzyme GfCNMT filled in.
1. CC(C)NC[C@H](O)COc1cccc2ccccc12 (racemic) [Propanolol, propanolol, reference compound]
2. COc1ccc(C[C@H]2c3cc(O)c(OC)cc3CCN2C)cc1O
3. COc1cc2c(cc1OC)CNCC2

1. ++
2. +
3. +++

---

- Tested on: PsRNMT
- procedure details: N-alkylation substrate screen using PsRNMT (LC-MS)
- Assay type: biochemical, Papaver somniferum
- Set-up: key: −=no detectable quantities of product N-alkylated compound; Trace, +, ++, +++=increasing relative levels of product N-alkylated compound; Trace, +, ++, +++=increasing relative levels of product N-alkylated compound; Trace, +, ++, +++=increasing relative levels of product N-alkylated compound; Trace, +, ++, +++=increasing relative levels of product N-alkylated compound
- test parameters: 25 μg protein, 1 mM substrate, 1 mM SAM, 60 mM HEPES pH 8, 16 hours at 37° C.; relative level of N-alkylated product by LC-MS
- Experimental: The GfCNMT, GfTNMT and PsRNMT coding sequences were amplified from Glaucium flavum (GfCNMT and GfTNMT) or Papaver somniferum (PsRNMT) cDNA using gene-specific primers containing attB recombination sites with Q5 HiFi DNA polymerase (NEB). […] Assay supernatants were analyzed by liquid chromatography-mass spectrometry (LC-MS). […] Ions were detected in full scan mode where quadrupoles 1 and 2 were set to RF only, whereas the third quadrupole scanned from 100-500 m/z over 525 milliseconds. […]
measured quantity: N-alkylation of substrate alkaloid compounds, Enzyme PsRNMT

1) COc1cc(CCN)cc(OC)c1OC [Mescaline, mescaline] | −
2) NC(=O)c1cccnc1 [Nicotinamide, nicotinamide] | −
3) COc1cc2c(cc1OC)CNCC2 [THQ2] | +
4) c1cc2c(c3c1C[C@H]1c4cc5c(cc4CCN1C3)OCO5)OCO2 [Stylopine, stylopine] | +++
5) NCCc1c[nH]c2ccccc12 [Tryptamine, tryptamine] | Trace

Lab note: each compound below needs its N-alkylation of substrate alkaloid compounds, Enzyme PsRNMT filled in.
1. COc1cc2c(cc1O)C(Cc1ccc(O)cc1)NCC2 (stereo not drawn) [Coclaurine, coclaurine]
2. CC(N)C(O)c1ccccc1 (stereo not drawn) [Norephedrine, norephedrine]
3. COc1ccc2c(c1OC)C(=O)O[C@@H]2[C@H]1c2c(cc3c(c2OC)OCO3)CCN1C [Noscapine, noscapine, reference compound]
4. COc1ccc2c(c1)[nH]c1c(C)nccc12 [Harmine, harmine]
5. CC(N)Cc1ccccc1 (stereo not drawn) [Amphetamine, amphetamine, reference compound]
6. NCCc1ccccc1 [2-Phenylethaneamine, 2-phenylethan-1-amine]

1: ++; 2: −; 3: ++; 4: −; 5: −; 6: −

Request body: readout N-alkylation of substrate alkaloid compounds, Enzyme PsRNMT, system PsRNMT, query CN[C@@H](C)[C@H](O)c1ccccc1 [Ephedrine, ephedrine, reference compound] . Return the value.
−
